Attribution: ChEMBL document CHEMBL1133779

Below, each of the compounds is paired with its reported Ki value.
- System tested: Cytochrome P450 2C9 (Homo sapiens, UniProt P11712)
- Sequence (P11712 whole entry): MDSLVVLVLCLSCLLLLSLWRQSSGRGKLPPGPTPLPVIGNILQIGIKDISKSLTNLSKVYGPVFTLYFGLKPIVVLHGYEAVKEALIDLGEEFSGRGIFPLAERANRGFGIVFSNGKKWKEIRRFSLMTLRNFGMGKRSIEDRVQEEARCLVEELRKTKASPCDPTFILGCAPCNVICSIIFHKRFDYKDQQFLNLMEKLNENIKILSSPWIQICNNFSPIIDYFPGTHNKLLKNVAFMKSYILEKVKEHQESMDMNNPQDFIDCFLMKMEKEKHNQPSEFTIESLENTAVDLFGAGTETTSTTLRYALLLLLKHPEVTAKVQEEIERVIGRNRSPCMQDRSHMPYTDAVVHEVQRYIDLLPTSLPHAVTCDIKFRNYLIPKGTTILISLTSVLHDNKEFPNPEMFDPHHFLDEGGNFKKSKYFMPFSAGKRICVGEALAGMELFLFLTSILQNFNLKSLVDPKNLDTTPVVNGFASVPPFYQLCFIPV
- Assay: Binding affinity was measured on Cytochrome P450 2C9
- Type: ADME
// return numeric value only (unit: µM, not printed)

[
  {
    "Compound": "CC[C@H](c1ccccc1)c1c(O)oc2ccccc2c1=O (stereo in doubt; 8)",
    "System tested": "Cytochrome P450 2C9 (Homo sapiens, UniProt P11712)",
    "Quantity unit": "µM",
    "Result value": 0.5
  },
  {
    "Compound": "C[C@@H](O)C[C@@H](c1ccccc1)c1c(O)oc2ccccc2c1=O",
    "System tested": "Cytochrome P450 2C9 (Homo sapiens, UniProt P11712)",
    "Quantity unit": "µM",
    "Result value": 0.1
  },
  {
    "Compound": "C[C@H](O)C[C@H](c1ccccc1)c1c(O)oc2ccccc2c1=O",
    "System tested": "Cytochrome P450 2C9 (Homo sapiens, UniProt P11712)",
    "Quantity unit": "µM",
    "Result value": 0.4
  },
  {
    "Compound": "CO[C@]1(C)C[C@@H](c2ccccc2)c2c(c3ccccc3oc2=O)O1",
    "System tested": "Cytochrome P450 2C9 (Homo sapiens, UniProt P11712)",
    "Quantity unit": "µM",
    "Result value": 20
  },
  {
    "Compound": "CC[C@H](c1ccccc1)c1c(O)oc2ccccc2c1=O (stereo in doubt; 9)",
    "System tested": "Cytochrome P450 2C9 (Homo sapiens, UniProt P11712)",
    "Quantity unit": "µM",
    "Result value": 18
  }
]

QUERY: Tell me reported Ki for CC[C@@H](c1ccccc1)c1c(OC)c2ccccc2oc1=O , tested with Cytochrome P450 2C9 (Homo sapiens, UniProt P11712).
RESULT: 6

QUERY: Tell me reported Ki for CO[C@@]1(C)C[C@@H](c2ccccc2)c2c(c3ccccc3oc2=O)O1 (stereo in doubt; 4) , tested with Cytochrome P450 2C9 (Homo sapiens, UniProt P11712).
RESULT: 7

QUERY: Tell me reported Ki for CO[C@@]1(C)C[C@@H](c2ccccc2)c2c(c3ccccc3oc2=O)O1 (stereo in doubt; 6) , tested with Cytochrome P450 2C9 (Homo sapiens, UniProt P11712).
RESULT: 1.1

QUERY: Tell me reported Ki for COc1c([C@H](CC(C)=O)c2ccccc2)c(=O)oc2ccccc12 (stereo in doubt; 14) , tested with Cytochrome P450 2C9 (Homo sapiens, UniProt P11712).
RESULT: 10
